Just for reference, patent US12522606B2 is where these values come from.

assay: PK Oral (MMV); assay type: in vivo; conditions: in vivo, dose 24.6 mg/kg
property name: Cmax (µM)

[[record]]
query_smiles = "CCOc1ncnc2c1c(-c1ccc3cc(OC4CC4)ccc3c1)cn2CC(C)(C)O"
recorded_value = 17.6


----------
Form field: CC50 (one value per entry).
experiment: in vitro; conditions: human, HepG2 hepatoma cell line
property name: CC50

[[record]]
query_smiles = "CC(C)(O)Cn1cc(-c2ccc3cc(OC4CC4)ccc3c2)c2c(NCCOCCOCCOCCN)ncnc21"
property_name = "CC50"
recorded_value = "30.7 µM"

[[record]]
query_smiles = "CCOc1ccc2cc(-c3cn(CC(C)(C)O)c4ncnc(OCC)c34)ccc2c1"
property_name = "CC50"
recorded_value = "> 80 µM"

[[record]]
query_smiles = "CNc1ncnc2c1c(-c1ccc(-c3ccccc3)cc1)nn2CC(C)(C)O"
property_name = "CC50"
recorded_value = "> 80 µM"

[[record]]
query_smiles = "CCOc1ccc2cc(-c3cn(CC(C)(C)OC)c4ncnc(NC)c34)ccc2c1"
property_name = "CC50"
recorded_value = "> 80 µM"

[[record]]
query_smiles = "CCOc1ccc2cc(-c3cn(CC(C)(C)O)c4ncnc(NC)c34)ccc2c1"
property_name = "CC50"
recorded_value = "> 80 µM"

[[record]]
query_smiles = "CCOc1ncnc2c1c(-c1ccc3cc(OC4CC4)ccc3c1)cn2CC(C)(C)O"
property_name = "CC50"
recorded_value = "> 40 µM"

[[record]]
query_smiles = "COCCOc1ncnc2c1c(-c1ccc3cc(OC4CC4)ccc3c1)cn2CC(C)(C)O"
property_name = "CC50"
recorded_value = "> 40 µM"

[[record]]
query_smiles = "CCOc1ccc2cc(-c3nn(CC(C)(C)O)c4ncnc(NC)c34)ccc2c1"
property_name = "CC50"
recorded_value = "> 80 µM"

